The following binders are shown together with reported pKd values.
Molecular target: T1, NHERF1_1, O14745
T1 sequence (O14745 9-104, limits assumed, looked up): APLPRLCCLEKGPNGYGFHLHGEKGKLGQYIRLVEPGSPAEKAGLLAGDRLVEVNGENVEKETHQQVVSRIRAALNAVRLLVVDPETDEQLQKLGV
Assay: holdup assay
Parameters: key: below the threshold = too weak to quantify, mostly under pKd 3.1 to 4
Details: plain residues with an end cap or a label only (N-terminal biotin on a linker: ttds)
Assay Metric: pKd

binder="RSLEEEESQL [GRASP, Q7Z6J2]" assay_metric=pKd recorded_number=4.46
binder="STLTIFETAL [ABCC4, O15439]" assay_metric=pKd recorded_number=5.36
binder="SSRTRRETQL [HPV16-E6, P03126]" assay_metric=pKd recorded_number=4.15
